Listing of recorded KRAS-G12D by entry.
# System: KRas^G12D
# Construct: purchased GSK/GenScript
# TEST: Intact MS photoaffinity labeling screen, KRas G12D (302 nm, LCMS-TOF)
# Format: binding
# TEST PARAMETERS: experimental hit status flag (0/1)
ENDPOINT: KRAS-G12D

COMPOUND	OBSERVED
CCOC(=O)c1c(NC(=O)CCC2(C)N=N2)sc2c1CCN(Cc1ccccc1)C2 [PhP002]	0
CN1C(=O)COc2ccc(NC(=O)CCC3(C)N=N3)cc21 [PhP007]	0
COC(=O)C(Cc1c[nH]c2ccccc12)NC(=O)CCC1(C)N=N1 (centres unmarked) [PhP014]	0
COc1ccc(-c2csc(CCNC(=O)CCC3(C)N=N3)n2)cc1 [PhP006]	0
CC1(CCC(=O)NCc2ccc(N3CCC(CO)CC3)cc2)N=N1 [PhP010, N1=NC1(C)CCC(=O)NCc2ccc(cc2)N3CCC(CO)CC3]	0
CC1(CCC(=O)NCc2cncc3ccccc23)N=N1 [PhP008, N1=NC1(C)CCC(=O)NCc(cnc2)c(c23)cccc3]	0
CCOC(=O)[C@H](NC(=O)CCC1(C)N=N1)c1ccccc1 [PhP005, c1ccccc1[C@H](C(=O)OCC)NC(=O)CCC2(C)N=N2]	0
Cn1ccnc1CCNC(=O)CCC1(C)N=N1 [PhP003, Cn1ccnc1CCNC(=O)CCC2(C)N=N2]	0

* * *

# System: lysozyme (Lyo)
# TEST: Intact protein MS photoaffinity labeling screen, lysozyme
# Format: binding
# TEST PARAMETERS: intact protein MS after 10 min irradiation
ENDPOINT: MS labeling percentage, Lyo

COMPOUND	ENDPOINT	OBSERVED
CC1(CCC(=O)NCc2ccccc2O)N=N1	MS labeling percentage, Lyo	0%
COc1ccc(NS(=O)(=O)c2cccc(NC(=O)CCC3(C)N=N3)c2)cc1	MS labeling percentage, Lyo	1.5%
CC1(CCC(=O)NCCc2csc(-c3ccccc3)n2)N=N1	MS labeling percentage, Lyo	1.8%
CC1(CCC(=O)NC2CCN(c3ccc(F)cc3)CC2)N=N1	MS labeling percentage, Lyo	2.6%
CC1(CCC(=O)NC2CCc3[nH]cnc3C2)N=N1 (centres unmarked) [PhP085, N1=NC1(C)CCC(=O)NC(CC2)Cc(c23)nc[nH]3]	MS labeling percentage, Lyo	0%
Cc1nnc(C(C)NC(=O)CCC2(C)N=N2)[nH]1 (centres unmarked) [PhP090, Cc([nH]1)nnc1C(C)NC(=O)CCC2(C)N=N2]	MS labeling percentage, Lyo	0%
Cn1c(CCNC(=O)CCC2(C)N=N2)nc2ccccc21	MS labeling percentage, Lyo	0%
COc1nc(C)cc(C)c1CNC(=O)CCC1(C)N=N1	MS labeling percentage, Lyo	0%
Cc1[nH]c2ccc(CNC(=O)CCC3(C)N=N3)cc2c1C	MS labeling percentage, Lyo	0%
CC1(CCC(=O)NC2CCc3nccn3C2)N=N1 (centres unmarked)	MS labeling percentage, Lyo	0%
COc1ccc(CNC(=O)CCC2(C)N=N2)cn1	MS labeling percentage, Lyo	0%
CC1(CCC(=O)NCC(C)(C)NS(C)(=O)=O)N=N1	MS labeling percentage, Lyo	0%
CC1(CCC(=O)NC2CCc3nc(C(C)(C)C)cn3C2)N=N1 (centres unmarked)	MS labeling percentage, Lyo	0%
CC1(CCC(=O)NCc2cccc(C(N)=O)c2)N=N1	MS labeling percentage, Lyo	0%
CC(Cc1ccc(O)c(O)c1)NC(=O)CCC1(C)N=N1 (centres unmarked)	MS labeling percentage, Lyo	19.2%
CC1(CCC(=O)NCCCCN2CCOCC2)N=N1	MS labeling percentage, Lyo	0%
Cc1nc2cc(NC(=O)CCC3(C)N=N3)ccc2n1-c1ccccc1	MS labeling percentage, Lyo	0.1%
COc1ccc(OC)c(C(O)C(C)NC(=O)CCC2(C)N=N2)c1 (centres unmarked)	MS labeling percentage, Lyo	3.6%
CN(C)CC(=O)Nc1cccc(NC(=O)CCC2(C)N=N2)c1	MS labeling percentage, Lyo	0%
Cc1c[nH]c(=O)n1-c1cccc(CNC(=O)CCC2(C)N=N2)c1	MS labeling percentage, Lyo	0%
COc1ccccc1OCCNC(=O)CCC1(C)N=N1	MS labeling percentage, Lyo	0%
CCOC(=O)c1c(NC(=O)CCC2(C)N=N2)sc2c1CCN(Cc1ccccc1)C2	MS labeling percentage, Lyo	0%
CC1(CCC(=O)NCc2cncc3ccccc23)N=N1	MS labeling percentage, Lyo	0%
Cc1cc2ncn(CC(O)CNC(=O)CCC3(C)N=N3)c2cc1C (centres unmarked)	MS labeling percentage, Lyo	0%
Cn1cnnc1CCNC(=O)CCC1(C)N=N1	MS labeling percentage, Lyo	0%
CC1(CCC(=O)NCc2ccc(CNC(=O)OC(C)(C)C)cc2)N=N1	MS labeling percentage, Lyo	2.2%
Cn1ccnc1-c1cc(NC(=O)CCC2(C)N=N2)n[nH]1 [PhP043, Cn1ccnc1-c2cc(n[nH]2)NC(=O)CCC3(C)N=N3]	MS labeling percentage, Lyo	0%
COc1ccc(-c2cnc(CNC(=O)CCC3(C)N=N3)[nH]2)cc1	MS labeling percentage, Lyo	0.5%
Cc1nc2ccccc2n1CCNC(=O)CCC1(C)N=N1	MS labeling percentage, Lyo	0%
CC1(CCC(=O)NCCc2c[nH]c3ccc(OCc4ccccc4)cc23)N=N1	MS labeling percentage, Lyo	2.8%
CC1(CCC(=O)NCCNC(=O)c2ccncc2)N=N1	MS labeling percentage, Lyo	0%
CC1(CCC(=O)Nc2ccc3oc(CN4CCCC4)nc3c2)N=N1	MS labeling percentage, Lyo	0%
